- Subject Of Test: beta-amyloid 1-42 oligomer (20% biotin) (Homo sapiens, UniProt P05067)
- Sequence (P05067 672-713 limits assumed): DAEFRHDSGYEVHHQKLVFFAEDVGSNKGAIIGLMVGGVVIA
pKd: −log10 of the molar value.
Property Name: pKd

1. O=Cc1ccc(-c2oc3ccccc3c2CO)o1 [Compound 49b] = 4.30

====

- Subject Of Test: soluble A-beta (1-42) (Homo sapiens)
- Sequence (P05067 672-713 limits assumed): as above
Property Name: Kd

1) Cc1cc(-c2oc3ccccc3c2C)ccc1F [Compound 39b] = > 100 µM

====

Reported inhibition at 50 µM is given for each of the following compounds.
- Subject Of Test: beta-amyloid 1-42 oligomer (20% biotin) (Homo sapiens, UniProt P05067)
- Construct: 12 μg beta-amyloid 1-42 oligomer (20% biotin); purchased Bachem H-5642; host or cells: synthetic peptide
- Experiment: SPA competition binding assay against 3H-49b on soluble oligomers
- Assay Setup: 50 uM unlabeled competitor, 130 nM 3H-49b
Property Name: inhibition at 50 µM

1) OCc1c(-c2ccc(C(O)CCC3OCCCO3)o2)oc2ccccc12 (centres unmarked) [Compound 15c] = 68%
2) COCCN1CCN(Cc2ccc(-c3oc4ccccc4c3COC(C)=O)o2)CC1 [Compound 4c] = 41%
3) OCc1c(-c2ccc(-c3c(-c4ccccc4)ncn3CCF)o2)oc2ccccc12 [Compound 5c] = 48%
4) N#Cc1ccc(C(O)c2ccc(-c3oc4ccccc4c3CO)o2)cc1 (centres unmarked) [Compound 6c] = 51%
5) CC(=O)OCc1c(-c2ccc(CN3CCN(c4ccc(C)cc4)CC3)o2)oc2ccccc12 [Compound 14c] = 60%
